System: Haemophilus influenzae
Test: Antimicrobial activity against Haemophilus influenzae ATCC 19418 after 24 hrs by two-fold broth dilution method
Assay type: functional
Conditions: ATCC 19418, 24 h
endpoint-name: MIC
Answer format reminder: number followed by unit.

COc1c(C)cc(-c2c(F)cc3c(=O)c(C(=O)O)cn(C4CC4)c3c2[N+](=O)[O-])cc1C; 0.015 µg/mL
O=C(O)c1cn(C2CC2)c2c([N+](=O)[O-])c(-c3ccc(F)cc3)c(F)cc2c1=O; 0.07 µg/mL
COc1ccc(-c2c(F)cc3c(=O)c(C(=O)O)cn(C4CC4)c3c2[N+](=O)[O-])cc1; 0.15 µg/mL
O=C(O)c1cn(C2CC2)c2c([N+](=O)[O-])c(-c3ccccc3)c(F)cc2c1=O; 0.15 µg/mL

Req: Quick check: MIC of "Cc1ccc(-c2c(F)cc3c(=O)c(C(=O)O)cn(C4CC4)c3c2[N+](=O)[O-])cc1" ?
Resp: 0.03 µg/mL
